experiment: gradient 5% acetonitrile 3 min, to 50% in 2 min, to 85% in 15 min, held 3 min, 100 µL/min; settings: column: Zorbax Extend-C18 2.1 x 50 mm; eluents: water / acetonitrile, 0.1% formic acid
assay.readout: RP-LC retention time (s)

Example compounds with recorded RP-LC retention time:
compound	reading
COc1ccc(OCC(=O)N2CCC(Nc3cccnc3)C2)cc1 (centres undefined)	726
CCN1CCN(Cc2ccc(-c3cc4c(N[C@H](C)c5ccccc5)ncnc4[nH]3)cc2)CC1	628
O=C(N[C@H]1C[C@@H]2C[C@H]1CN2C(=O)c1ccccc1Cl)c1cccs1	701
Cc1cc(C)cc(S(=O)(=O)N2CCC(n3cnc4ccc(C)cc4c3=O)CC2)c1	1010

(1) COc1ccc(OC)c(S(=O)(=O)NCc2ccc3c(c2)CCN3C(C)=O)c1
(2) CCOc1cccc(-c2noc(-c3nnn4c3COC(c3ccc(OC)cc3)C4)n2)c1 (centres undefined)
## Input Select one. Lower RP-LC retention time: 1 or 2 # answer = label of selected item
## Output 1
(1: 719 s, 2: 1210 s)

(A) O=C(Nc1ccc(S(=O)(=O)N2CCOCC2)cc1)c1ccc(Cl)s1
(B) Cc1ccc(S(=O)(=O)N2CCCC2c2nc(-c3cccc(Cl)c3)no2)cc1C (centres undefined)
## Input Select one. Lower RP-LC retention time: A or B # answer = label of selected item
## Output A
(A: 767 s, B: 1270 s)

(P) COC(=O)c1cn(Cc2ccc(OC)c(F)c2)nc1S(=O)(=O)N1CCCCC1
(Q) O=C(CC1CCNCC1)N1CCC(CCOc2cccnc2)CC1
## Input // compare measured RP-LC retention time, left P , right Q , return larger # answer = label of selected item
## Output P

(a) Cc1cc(NS(=O)(=O)c2cc(-c3[nH]ncc3C(=O)N3CCOCC3)oc2C)ccc1F
(b) Cc1ccc(-c2csc(Cc3nc(-c4cccc(F)c4)no3)n2)cc1
## Input // compare measured RP-LC retention time, left a , right b , return larger # answer = label of selected item
## Output b
(b: 1270 s, a: 691 s)

(A) CSc1cccc(NC(=O)N2CCC(C)(C(=O)NCc3ccc(F)cc3)CC2)c1
(B) CCCc1cc(N2CCN(C(=O)c3sccc3C)CC2)nc2nnc(C)n12
## Input Select one. Lower RP-LC retention time: A or B # answer = label of selected item
## Output B
